Numbers sourced from PubChem BioAssay AID1626.

Protocol notes: M. tuberculosis H37Rv growth inhibitors, H37Rv strain (AID 1626);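 note: bacteria incubated seven days before Alamar blue readout; 0% = bacteria only wells and 100% = bacteria with antibiotic wells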
Experimental parameters: stronger effect = higher value, concentration not given here
Screen size: about 220,000 compounds; about 2,000 (0.91%) were called active. Another 2% or so got no clear call; they are omitted. Only a sample is shown. Entries with a potency or affinity are not part of this list.
Reported endpoint: inhibition (%)
Kindly answer with a numeric value in %, unit omitted.

Observe how each entry below is paired with its result.
Compound: Cc1ccc2cccc(OC(=O)/C=C\c3ccccc3)c2n1
Output unit: %
inhibition: -1.17
//
Compound: Cc1ccc(C)c(-n2nnnc2Sc2nc([N+](=O)[O-])nn2C)c1
Output unit: %
inhibition: -10.2
//
Compound: NS(=O)(=O)c1ccc(N=C2C(=O)Nc3ccccc32)cc1
Output unit: %
inhibition: -2.66
//
Compound: COc1ccc(CNC(=O)COC(=O)C2=COCCO2)cc1
Output unit: %
inhibition: 46.3
//
Compound: N#CC(C(=O)C1CCCCC1)c1nc2ccccc2[nH]1 (centres undefined)
Output unit: %
inhibition: 56.9

Input: Identify measured inhibition corresponding to Cc1ccc(CNC(=O)C23CN(Cc4ccccc4)CC2C(c2ccc([N+](=O)[O-])cc2)=NO3)cc1 (centres undefined)
Output: 7.16

Input: Identify measured inhibition corresponding to `COc1ccc(CC(=O)OCC(=O)NC(=O)NC23CC4CC(CC(C4)C2)C3)cc1`
Output: 0.65

Input: Identify measured inhibition corresponding to `CC(C)c1ccc2c(c1)C(c1cccs1)=NNC(c1ccncc1)=N2`
Output: 0.38

Input: Identify measured inhibition corresponding to `Nc1ccc(Br)cc1C(=O)O`
Output: -3.82

----------
Protocol notes: M. tuberculosis H37Rv growth inhibitors, H37Rv strain (AID 1626)
Experimental parameters: stronger effect = higher value, concentration not given here
Out of some 220,000 compounds screened, about 2,000 (0.91%) were called active. Not shown: some 2% with an inconclusive outcome. Only a sample is shown. Measured potencies and affinities stand elsewhere.
The following compounds are listed with their measured inhibition values.

Input: Identify measured inhibition corresponding to `CCCCn1c(NC(=S)Nc2ccccc2)nc2ccccc21`
Output: 9.5% (inactive)

Input: Identify measured inhibition corresponding to `C#CCSc1nc(C)cc(C(=O)OCC)c1C#N`
Output: -3.19% (inactive)

----------
The following molecules are listed with their measured inhibition values.
Protocol notes: M. tuberculosis H37Rv growth inhibitors, H37Rv strain (AID 1626)
Experimental parameters: stronger effect = higher value, concentration not given here
Out of some 220,000 compounds screened, about 2,000 (0.91%) were called active. About 2% were inconclusive and are not listed. Only a sample is shown. Entries with a potency or affinity are not part of this list.
Kindly answer with a numeric value in %, unit omitted.

Molecule: CSc1nc2ccccc2n1CC(=O)Nc1ccccc1
Output unit: %
inhibition: -4.24

Input: Identify measured inhibition corresponding to `CCCN(Cc1ccccc1)C(=S)Nc1cccc(C)c1C`
Output: 3.47

----------
Protocol notes: M. tuberculosis H37Rv growth inhibitors, H37Rv strain (AID 1626)
Experimental parameters: stronger effect = higher value, concentration not given here
Out of some 220,000 compounds screened, about 2,000 (0.91%) were called active. Inconclusive results (about 2%) are left out. The list is a sample of the results. Results with a measured potency or affinity are listed apart.
The following molecules are listed with their measured inhibition values.
Kindly answer with a numeric value in %, unit omitted.

Molecule: Cc1cc2nc(CCl)cc(=O)n2[nH]1
inhibition (%): 2.54

Molecule: CCOc1cc(CNCCc2ccc(S(N)(=O)=O)cc2)cc(Cl)c1OCc1ccccc1
inhibition (%): 58.8

Molecule: CCOc1ncccc1C(=O)Nc1ccccc1C(=O)NCc1ccc2c(c1)OCO2
inhibition (%): -0.12

Molecule: COc1ccc(-c2cc(C3CCN(c4cc(Cl)nc(N)n4)CC3)[nH]n2)cc1
inhibition (%): 4.7

Molecule: COc1cc(OC)cc(C(=O)NCC(=O)OCC(=O)N2c3ccccc3NC(=O)C2(C)C)c1
inhibition (%): -1.81

Molecule: Cc1cc([N+](=O)[O-])nn1CCCC(=O)Nc1cc(Oc2ccc(F)cc2)cc([N+](=O)[O-])c1
inhibition (%): 76

Input: Identify measured inhibition corresponding to `Cn1ncc2c(Nc3ccccc3Cl)nc(Nc3ccccc3Cl)nc21`
Output: 29.2

Input: Identify measured inhibition corresponding to `CC1CCN(C(=O)c2ccc(CNc3c(N4CCCC4)c(=O)c3=O)cc2)CC1`
Output: 78.3

Input: Identify measured inhibition corresponding to Cc1ccc(C)c(N(C(=O)CS(=O)CC(=O)Nc2ccc3c(c2)OCO3)C(C)C(=O)NC2CCCC2)c1 (stereo unspecified)
Output: -13.4

Input: Identify measured inhibition corresponding to `Cc1ccc(N=CC=C2OC(C)(C)C(C)(C)O2)c(C)c1`
Output: -2.12

Input: Identify measured inhibition corresponding to `CN(C)CCCN1c2ccccc2Sc2ccccc21`
Output: -4.11

Input: Identify measured inhibition corresponding to `O=C(O)c1ccc(S(=O)(=O)N2CCC(c3nc(-c4ccccc4Cl)no3)CC2)cc1`
Output: -8.76

Input: Identify measured inhibition corresponding to `CC(C)(C)OC(=O)NNC(=S)NCc1ccc(Cl)cc1`
Output: -13

Input: Identify measured inhibition corresponding to `N#C/C(=C\c1ccc(C(=O)O)cc1)S(=O)(=O)c1cc(Br)ccc1Br`
Output: 17

Input: Identify measured inhibition corresponding to `CCn1c(=O)c(C(=O)NC(C)C)c(O)c2ccccc21`
Output: 0.51

Input: Identify measured inhibition corresponding to `Cc1sc2nc(CN3CCOCC3)nc(Cl)c2c1C`
Output: 1.93

Input: Identify measured inhibition corresponding to `Cc1ccc(CNC(=O)c2ccc(CNc3c(N4CCCC4)c(=O)c3=O)cc2)cc1`
Output: 8.62

Input: Identify measured inhibition corresponding to `O=C(NNS(=O)(=O)c1ccccc1C(F)(F)F)c1cccc(S(=O)(=O)Nc2ccccc2Cl)c1`
Output: 5.57

Input: Identify measured inhibition corresponding to `O=C(NCc1cn2ccsc2n1)c1cccs1`
Output: 2.94

Input: Identify measured inhibition corresponding to `Cc1ccc(C)c(Oc2cc(NC(=O)CCCn3nc(C)c([N+](=O)[O-])c3C)cc([N+](=O)[O-])c2)c1`
Output: 5.87

Input: Identify measured inhibition corresponding to `Cc1ccccc1Oc1cc(NC(=O)CCCn2nc(C)c([N+](=O)[O-])c2C)cc([N+](=O)[O-])c1`
Output: 4.71

----------
Protocol notes: M. tuberculosis H37Rv growth inhibitors, H37Rv strain (AID 1626);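 note: bacteria incubated seven days before Alamar blue readout; 0% = bacteria only wells and 100% = bacteria with antibiotic wells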
Experimental parameters: stronger effect = higher value, concentration not given here
Among all 220,000 compounds or so, about 2,000 (0.91%) were called active. Another 2% or so got no clear call; they are omitted. The list is a sample of the results. Results with a measured potency or affinity are listed apart.
The following molecules are listed with their measured inhibition values.

Molecule: CCCCOc1ccc(C(C)NC(=O)C2CCCN(S(=O)(=O)CC)C2)cc1 (stereo not drawn)
Assay value: -2.95% (inactive)
--
Molecule: CC(C)CCNC(=O)c1onc(CSc2ccccc2)c1C(=O)NCCC(C)C
Assay value: 19% (inactive)

Now look at this one.
Input: Identify measured inhibition corresponding to Cc1cc(C)n2nc(C(=O)OCC(=O)c3cc(C)n(CC4CCCO4)c3C)nc2n1 (stereo not drawn)
Output: -11.1% (inactive)

----------
Protocol notes: M. tuberculosis H37Rv growth inhibitors, H37Rv strain (AID 1626);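 note: bacteria incubated seven days before Alamar blue readout; 0% = bacteria only wells and 100% = bacteria with antibiotic wells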
Experimental parameters: stronger effect = higher value, concentration not given here
About 2,000 (0.91%) of roughly 220,000 compounds were called active. About 2% were inconclusive and are not listed. These entries were drawn from the full list. Results with a measured potency or affinity are listed apart.
The following molecules are listed with their measured inhibition values.
Kindly answer with a numeric value in %, unit omitted.

Observe how each entry below is paired with its result.
Molecule: Cc1ccccc1CN(c1ccc(C(=O)NCc2cccnc2)cc1)S(C)(=O)=O
inhibition [%]: -13.5
//
Molecule: CCN1CCN(Cc2ccc(NC(=O)c3ccc(C)c(NC(=O)N4CCNC4=O)c3)cc2C(F)(F)F)CC1
inhibition [%]: -4.19
//
Molecule: O=C(Nc1ccc([N+](=O)[O-])cn1)C1CC1
inhibition [%]: 5.22
//
Molecule: Cc1ccc(NC(=S)NCc2ccccc2)cc1S(=O)(=O)N1CCCCC1
inhibition [%]: -3.09
//
Molecule: Cc1ccc(OCCNC(=O)c2cc(C(=O)NCCOc3ccc(C)cc3)cc([N+](=O)[O-])c2)cc1
inhibition [%]: 1.97
//
Molecule: CCc1ccc(CNCc2cccs2)cc1
inhibition [%]: -12.3

Now look at this one.
Input: Identify measured inhibition corresponding to CCc1ccc(C2c3[nH]c4ccccc4c3CCN2C(=O)c2cc[n+]([O-])cc2)cc1 (configuration not stated)
Output: 7.89

----------
The following molecules are listed with their measured inhibition values.
Protocol notes: M. tuberculosis H37Rv growth inhibitors, H37Rv strain (AID 1626);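 note: bacteria incubated seven days before Alamar blue readout; 0% = bacteria only wells and 100% = bacteria with antibiotic wells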
Experimental parameters: stronger effect = higher value, concentration not given here
The whole screen tested about 220,000 compounds, of which about 2,000 (0.91%) were called active. About 2% were inconclusive and are not listed. These entries were drawn from the full list. Measured potencies and affinities stand elsewhere.
Kindly answer with a numeric value in %, unit omitted.

Molecule: O=c1oc2ccccc2c(N2CCCCC2)c1CN1CCCCC1
Output unit: %
inhibition: 1.71

Input: Identify measured inhibition corresponding to `Nc1c2c(nc3ccccc13)N(C1CCCCC1)CC2`
Output: 1.71

Input: Identify measured inhibition corresponding to `S=c1[nH]c2ccccc2[nH]1`
Output: -2.67
